Target: NUPR1 (Homo sapiens, UniProt O60356)
Sequence (O60356 1-82): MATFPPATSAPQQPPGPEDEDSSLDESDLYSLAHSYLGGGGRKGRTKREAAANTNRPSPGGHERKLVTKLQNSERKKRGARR
Counter-ions that a name gives are not always drawn.
PARAMETER: pKd
In textbook form, pKd equals minus log to base ten of the concentration in mol/L.

Q: Supply measured pKd of Fc1ccc(C(c2ccc(F)cc2)N2CCN(C/C=C/c3ccccc3)CC2)cc1 [Compound-6, Flunarizine dihydrochloride] in your reply.
Ans: 5.51

Q: Supply measured pKd of CN(C)[C@@H]1C(O)=C(C(N)=O)C(=O)[C@@]2(O)C(O)=C3C(=O)c4c(O)ccc(Cl)c4[C@@](C)(O)[C@H]3C[C@@H]12 [compound 14, Chlortetracycline hydrochloride] in your reply.
Ans: 5.82

Q: Supply measured pKd of CC(C)NCC(O)c1ccc(O)c(O)c1.Cl (single isomer, unassigned; (-)) [compound 5, (-)-Isoproterenol hydrochloride] in your reply.
Ans: 5.41

###

Molecular target: NUPR1 (Homo sapiens)
Sequence (O60356 1-82): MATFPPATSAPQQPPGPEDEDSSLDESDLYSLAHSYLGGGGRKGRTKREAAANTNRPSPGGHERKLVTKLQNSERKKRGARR
Counter-ions that a name gives are not always drawn.
Would you mind telling me the reported pKd of each entry?
In textbook form, pKd equals minus log to base ten of the concentration in mol/L.

Q: Supply measured pKd of O=C(O)/C=C/c1ccc(O)c(O)c1 [compound 3, Caffeic acid] in your reply.
Ans: 5.70

Q: Supply measured pKd of CCCCN(CCCC)CCC(O)c1cc2c(Cl)cc(Cl)cc2c2cc(C(F)(F)F)ccc12 (stereo not drawn) [Compound-7, Halofantrine hydrochloride] in your reply.
Ans: 5.48

Q: Supply measured pKd of CN(C)CCC(c1ccccc1)c1ccccn1 (stereo not drawn) [compound 10, Pheniramine maleate] in your reply.
Ans: 5.37

Q: Supply measured pKd of CC(C)(C)c1ccc(C(O)CCCN2CCC(C(O)(c3ccccc3)c3ccccc3)CC2)cc1 (stereo not drawn) [Compound-1, Terfenadine] in your reply.
Ans: 5.30

Q: Supply measured pKd of CC(C)NCC(O)c1ccc(O)c(O)c1.O=C(O)C(O)C(O)C(=O)O (single isomer, unassigned; (+)) [Compound-9, (+)-Isoproterenol (+)-bitartrate salt] in your reply.
Ans: 5.40

Q: Supply measured pKd of C[C@H](N)[C@H](O)c1ccc(O)c(O)c1 [Compound-8, Levonordefrin] in your reply.
Ans: 5.82

###

Target: NUPR1 (Homo sapiens)
Construct: made in house; host or cells: E. coli
Test: 2D 1H-15N HSQC NMR cross-peak broadening of NUPR1 upon compound addition
Assay type: binding
Conditions: NUPR1 100 μM : compound 400 μM, 25 °C, pH 4.5
Where a name gives a salt, the structure may show the parent alone.
PARAMETER: Residues of NUPR1 with NMR-cross-peak broadening affected by binding

Look over these answered cases.
>  <MOLECULE>
C[C@H](N)[C@H](O)c1ccc(O)c(O)c1

>  <ASSAYED TARGET>
NUPR1 (Homo sapiens)

>  <RECORDED VALUE>
Ala33; Thr68

$$$$
>  <MOLECULE>
O=C(O)/C=C/c1ccc(O)c(O)c1

>  <ASSAYED TARGET>
NUPR1 (Homo sapiens)

>  <RECORDED VALUE>
Ala33; Thr68

$$$$
>  <MOLECULE>
COC(=O)[C@H]1[C@H]2C[C@@H]3c4[nH]c5cc(OC)ccc5c4CCN3C[C@H]2C[C@@H](OC(=O)c2cc(OC)c(OC)c(OC)c2)[C@@H]1OC

>  <ASSAYED TARGET>
NUPR1 (Homo sapiens)

>  <RECORDED VALUE>
Thr68

$$$$
>  <MOLECULE>
CC(C)N1CCN(c2ccc(OCC3COC(Cn4cncn4)(c4ccc(Cl)cc4Cl)O3)cc2)CC1 (stereo not drawn)

>  <ASSAYED TARGET>
NUPR1 (Homo sapiens)

>  <RECORDED VALUE>
Thr68

$$$$
>  <MOLECULE>
CN1CCN(CCCN2c3ccccc3Sc3ccc(C(F)(F)F)cc32)CC1 [Compound-15, Trifluoperazine dihydrochloride]

>  <ASSAYED TARGET>
NUPR1 (Homo sapiens)

>  <RECORDED VALUE>
Ala33; Thr68

$$$$
>  <MOLECULE>
CCCCN(CCCC)CCC(O)c1cc2c(Cl)cc(Cl)cc2c2cc(C(F)(F)F)ccc12 (stereo not drawn) [Compound-7, Halofantrine hydrochloride]

>  <ASSAYED TARGET>
NUPR1 (Homo sapiens)

>  <RECORDED VALUE>
Thr68

$$$$

Q: Print NUPR1 (Homo sapiens) Residues of NUPR1 with NMR-cross-peak broadening affected by binding for CN(C)[C@@H]1C(O)=C(C(N)=O)C(=O)[C@@]2(O)C(O)=C3C(=O)c4c(O)ccc(Cl)c4[C@@](C)(O)[C@H]3C[C@@H]12 [compound 14, Chlortetracycline hydrochloride] .
Ans: Ala33; Thr68

Q: Print NUPR1 (Homo sapiens) Residues of NUPR1 with NMR-cross-peak broadening affected by binding for CC(C)NCC(O)c1ccc(O)c(O)c1.Cl (single isomer, unassigned; (-)) [compound 5, (-)-Isoproterenol hydrochloride] .
Ans: Thr68

Q: Print NUPR1 (Homo sapiens) Residues of NUPR1 with NMR-cross-peak broadening affected by binding for Fc1ccc(C(c2ccc(F)cc2)N2CCN(C/C=C/c3ccccc3)CC2)cc1 [Compound-6, Flunarizine dihydrochloride] .
Ans: Ala33; Thr68

Q: Print NUPR1 (Homo sapiens) Residues of NUPR1 with NMR-cross-peak broadening affected by binding for OCCN1CCN(CCCN2c3ccccc3Sc3ccc(C(F)(F)F)cc32)CC1 [Compound-2, Fluphenazine dihydrochloride] .
Ans: Thr68

###

Here's what we have: pKd numbers for NUPR1 (Homo sapiens, UniProt O60356).
Counter-ions that a name gives are not always drawn.
In textbook form, pKd equals minus log to base ten of the concentration in mol/L.

Q: Supply measured pKd of `COC(=O)[C@H]1[C@H]2C[C@@H]3c4[nH]c5cc(OC)ccc5c4CCN3C[C@H]2C[C@@H](OC(=O)c2cc(OC)c(OC)c(OC)c2)[C@@H]1OC` in your reply.
Ans: 5.49

Q: Supply measured pKd of OCCN1CCN(CCCN2c3ccccc3Sc3ccc(C(F)(F)F)cc32)CC1 [Compound-2, Fluphenazine dihydrochloride] in your reply.
Ans: 5.70

Q: Supply measured pKd of CN1CCN(CCCN2c3ccccc3Sc3ccc(C(F)(F)F)cc32)CC1 [Compound-15, Trifluoperazine dihydrochloride] in your reply.
Ans: 5.28
